assay: Metal chelating activity assessed as compound-Cu2+ complex formation by measuring stability constant at 10 uM in presence of CuCl2 after 30 mins by UV-visible spectrophotometric analysis
Recorded K, one value per entry.
A number alone suffices; assume ×10⁵ No_unit.

Reference set, count: 3
{"columns": ["compound-structure-string", "value-reported"],
 "data": [
  ["O=c1c2ccc(OCCN3CCCCC3)cc2oc2cc(OCCN3CCCCC3)cc(O)c12", 2.16],
  ["O=c1c2ccc(OCCN3CCOCC3)cc2oc2cc(OCCN3CCOCC3)cc(O)c12", 1.14],
  ["CN(C)CCOc1ccc2c(=O)c3c(O)cc(OCCN(C)C)cc3oc2c1", 1.65]
]}

Kindly consider the entry below.
Inquiry: Given O=c1c2ccc(OCCN3CCCC3)cc2oc2cc(OCCN3CCCC3)cc(O)c12 , state its recorded K.
Reply text: 2.67

Data provenance: ChEMBL document CHEMBL4610047
